- Measurement notes: amyloid nucleation score (Sup35N fusion, yeast selection) (log enrichment); library NNK1; higher = more nucleation; inactive = no reads after selection;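 note: zero at mode of non-aggregating sequences after 7 days selection at 30°C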
Rule: amyloid nucleation score of -0.1 or more gives Yes; anything lower gives No.

A selection of reference data follows.
>>> df
              substance  assigned_category
0  GFLSATWCSQWSIILVKERG                Yes
1  YCKLDVAVFCVQYNMSMSEQ                Yes
2  FIDRIYSIVYGVGGCMMSLI                Yes
3  SHSGFTCTCWCMALLYGVAS                Yes

Query: Does the reported amyloid nucleation score for IMMSYRFHFNNSERIRGCVR fall at or above the -0.1 mark?
Result: No

Query: Does the reported amyloid nucleation score for DDCRMYAFL fall at or above the -0.1 mark?
Result: Yes

Query: Does the reported amyloid nucleation score for VELLGQYVICPSTRCRIVEN fall at or above the -0.1 mark?
Result: Yes

Query: Does the reported amyloid nucleation score for WSIEWFYSMSYARIDME fall at or above the -0.1 mark?
Result: No

Query: Does the reported amyloid nucleation score for MPVALKIAILTFWEKSNLCE fall at or above the -0.1 mark?
Result: Yes

Query: Does the reported amyloid nucleation score for MFIYIYGVPVLTLWGFNVCV fall at or above the -0.1 mark?
Result: Yes

Query: Does the reported amyloid nucleation score for FIIWHELWKVMWSSTALSLD fall at or above the -0.1 mark?
Result: Yes

Query: Does the reported amyloid nucleation score for INDCYFMWGNLFCYVCVMLL fall at or above the -0.1 mark?
Result: Yes
